Numbers sourced from PubChem BioAssay.

target: Concanavalin-A (Canavalia ensiformis); experiment: ConA small-molecule binders, primary screen, artefact control for SMM control protein annotation, biochemical, small-molecule microarray, Alexa647 label, 635 nm (AID 1127); conditions: ConA-A647 binding fluorescence, higher = more signal;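 note: z combines 667 nm emission intensity with signal-to-noise across three replicate slides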
For each record, write down the corresponding composite z-score.
One number for each entry.

For every item in the list below, what is its measured composite z-score?
1. COc1ccc2c(c1)O[C@@H](c1cccc(C(F)(F)F)c1)[C@H](O)C2=O
2. O=C1[C@H]2[C@H]3[C@H](O)[C@H](O)CC(=NO[C@@H]4O[C@H](CO)[C@@H](O)[C@H](O)[C@H]4O)[C@@H]3CC[C@H]2C(=O)N1c1cccc(Oc2ccccc2)c1

1: 0.494; 2: 0.588

So for COC(=O)[C@@H]1CC[C@H](C)[C@@H](c2ccc(C)cc2)N1C(=O)c1ccc(C=NO[C@@H](C)c2cc(-c3c(C)cc(C)cc3C)no2)cc1 , the logged composite z-score turned out to be 0.894
